The values you see were collected from paper PMC10073072.

# Assay target: METTL9^46–318 (human, UniProt Q9H1A3 46-318)
# Sequence (Q9H1A3 46-318): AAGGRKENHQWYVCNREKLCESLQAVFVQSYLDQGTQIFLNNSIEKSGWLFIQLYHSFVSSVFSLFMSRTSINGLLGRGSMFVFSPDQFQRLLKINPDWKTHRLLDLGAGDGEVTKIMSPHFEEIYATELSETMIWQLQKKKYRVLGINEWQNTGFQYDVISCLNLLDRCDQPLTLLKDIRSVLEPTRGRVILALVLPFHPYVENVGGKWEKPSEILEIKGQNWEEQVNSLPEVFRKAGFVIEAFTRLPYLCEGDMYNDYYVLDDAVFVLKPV
# Procedure text: ITC

- Binder: "RGHGHSHGKGC [mouse S100A9^101–111 peptide]"
  Kd: "2.3 µM"
- Binder: "GHQGHSHGHQGGY [SLC39A5^369–380 peptide]"
  Kd: "9.3 µM"
